- Tested on: MDA-MB-435
- assay name: NCI tumour cell line growth inhibition, 48 h; in the data active = GI50 below about 0.43 µM; inactive = the rest
Hi there, use one of these labels in your reply, thanks! active, inactive

Solved entries:
[
  {
    "molecule": "O=C1OCC2=C1C(c1cccc(C(F)(F)F)c1)c1cc3c(cc1N2CCO)OCO3 (stereo not drawn)",
    "label value": "active"
  },
  {
    "molecule": "CCN1/C(=C/C=C/C=C/c2sc3ccccc3[n+]2CC)Sc2ccccc21",
    "label value": "active"
  },
  {
    "molecule": "COc1cc(/C=C/C(=O)NC[C@]2(O)CCC3C4CCc5cc(O)ccc5C4CCC32C)ccc1O (stereo partly drawn)",
    "label value": "inactive"
  },
  {
    "molecule": "Cc1c2cnccc2c(C)c2c1c1cc(C(=O)O)ccc1n2C",
    "label value": "inactive"
  }
]

# lookup: test call for CCc1nc(-n2c(CC)nc3ccccc3c2=O)nc(N)c1-c1ccc(Cl)cc1
inactive

# lookup: test call for COc1cc2cn3c4ccc(O)cc4nc(N)c3c2cc1OC
active

# lookup: test call for CSC1=Nc2c(c(C)c(-c3ccccc3)n2CCCCl)C2=NC(=O)CN12
inactive

###

Overview of recorded log10 of TGI for various molecules
- System: PC-3 prostate
- assay name: NCI tumour cell line growth inhibition, 48 h
For clarity, the numbers are log10 values of TGI expressed in µM.

Recorded results for 4 molecules are shown here.
[
  {
    "molecule": "CC[C@@]1(O)C[C@H](OC2CC(N(C)C)C(OC3CC(O)C(OC4CCC(=O)C(C)O4)C(C)O3)C(C)O2)c2c(cc3c(c2O)C(=O)c2c(O)ccc(O)c2C3=O)[C@H]1C(=O)OC (stereo not given in full)",
    "log10 of TGI": -2.21
  },
  {
    "molecule": "Nc1nc(N)c2ncn(-c3ccc(Cl)c(Cl)c3)c2n1",
    "log10 of TGI": 1.91
  },
  {
    "molecule": "Cc1cc(Nc2cc(CN3CCOCC3)c3nc(C)c(Cc4ccc(Cl)cc4F)n3n2)n[nH]1",
    "log10 of TGI": 1.26
  },
  {
    "molecule": "CC(C)(Cl)C(Br)CCC(CBr)=C(Cl)CCl (mixture of isomers)",
    "log10 of TGI": 0.75
  }
]

Now, please, on to the next molecule.
Using the record for O=C1c2ccccc2C(=O)c2c(NC(=O)C(Cl)CCl)cccc21 (stereo not given) , report its log10 of TGI.
1.39

###

- Tested on: HCT-15 colon
- assay name: NCI tumour cell line growth inhibition, 48 h
Please mark label 1 if the recorded TGI is equal to or greater than 30 µM, and label 0 if it falls below.

[
  {
    "molecule": "Cc1cc(S(N)(=O)=O)c(S/C(=N\\Nc2ccc([N+](=O)[O-])cc2)c2ccc(O)cc2)cc1Cl",
    "label value": "label 0"
  },
  {
    "molecule": "CCOC(=O)CCC(NC(=O)c1ccc(Nc2cnc3cc(C(F)(F)F)ccc3n2)cc1)C(=O)OCC (centres undefined)",
    "label value": "label 1"
  },
  {
    "molecule": "CCN(CC)C(=S)SC(=S)N(CC)CC",
    "label value": "label 1"
  },
  {
    "molecule": "O=[N+]([O-])c1ccc(/C=N\\Nc2ccc([N+](=O)[O-])cn2)cc1",
    "label value": "label 1"
  },
  {
    "molecule": "O=C1c2ccccc2C(=O)c2c(NC(=O)C(Cl)CCl)cccc21 (centres undefined)",
    "label value": "label 0"
  }
]

Would you say COc1cc(CNc2nc3ccccc3n2Cc2ccccc2)cc(CN2CCOCC2)c1O shows TGI at minimum 30 µM?
label 1

Would you say CN1C(=O)N(C)C2C1NN=c1s/c(=C\c3c[nH]c4ccccc34)c(=O)n12 (centres undefined) shows TGI at minimum 30 µM?
label 1

Would you say COc1ccc2c(c1)CC[C@@H]1[C@@H]2CC[C@]2(C)c3[nH]ncc3C[C@@H]12 shows TGI at minimum 30 µM?
label 1

Would you say COc1ccc2c(c1)CCC(CN1CCN(CCOC(c3ccc(F)cc3)c3ccc(F)cc3)CC1)C2O (centres undefined) shows TGI at minimum 30 µM?
label 0

Would you say COc1ccc(-c2nn(-c3ccc(NC(=O)Nc4ccc(Cl)c(Cl)c4)cc3)cc2-c2ccncc2)cc1Cl shows TGI at minimum 30 µM?
label 1

Would you say Cc1ccc(S(=O)(=O)NC(=O)NC(C(=O)O)C(C)O)cc1 (centres undefined) shows TGI at minimum 30 µM?
label 1

Would you say Cc1cc(C)c(S(=O)(=O)N(CCCCCCN)OCCCN)c(C)c1 shows TGI at minimum 30 µM?
label 1

Would you say COc1cc(/C=C/C(=O)NC[C@]2(O)CCC3C4CCc5cc(O)ccc5C4CCC32C)ccc1O (some centres undefined) shows TGI at minimum 30 µM?
label 1

Would you say N#CC(c1ccccc1)N(CCc1ccccc1)C(=O)c1ccccc1 (centres undefined) shows TGI at minimum 30 µM?
label 1

###

- System: HT29 colon
- assay name: NCI tumour cell line growth inhibition, 48 h
attribute measured: log10 TGI (log10 of the value in µM)
For clarity, the numbers are log10 values of TGI expressed in µM.

Recorded results for 5 compounds are shown here.
[
  {
    "compound": "CN(C)Cc1cc(N=Nc2ccccc2Cl)ccc1O",
    "result number": 1.53
  },
  {
    "compound": "Cc1ccc(/C=N/Nc2cc(C)c3ccccc3n2)s1",
    "result number": 1.27
  },
  {
    "compound": "O=Nc1ccc(O)c2ncccc12",
    "result number": 1.54
  },
  {
    "compound": "O=C1OCC2=C1C(c1cccc(C(F)(F)F)c1)c1cc3c(cc1N2CCO)OCO3 (stereo unspecified)",
    "result number": 0.92
  },
  {
    "compound": "CSC1=Nc2c(c(C)c(-c3ccccc3)n2CCCCl)C2=NC(=O)CN12",
    "result number": 1.29
  }
]

Using the record for Clc1ccccc1C1N2CCCCC2[C@@H]2c3[nH]c4ccccc4c3CCN12 (stereo partly specified) , report its log10 TGI.
1.50

Using the record for CC(C)(C)OC(=O)N1CC(Cn2cc(C(F)(F)F)c3c(Cl)ncnc32)C1 , report its log10 TGI.
0.82

Using the record for CC(=O)OCC1OC(O[C@@H]2C[C@H]3C(C)(C)[C@H](OC(C)=O)CC[C@]3(C)[C@H]3CC[C@]4(C)C(=CC[C@H]4[C@@H](C)C[C@@H](O)[C@H](O)C(C)(C)O)[C@@]32C)C(O)C(O)C1O (stereo partly specified) , report its log10 TGI.
1.51

Using the record for COc1ccc2c(O)c(/C=C3\N=Nc4ncccc43)oc2c1C[C@H]1CCNC[C@H]1F , report its log10 TGI.
0.84

Using the record for CCOC(=O)/C(=C\c1ccnc2ccccc12)P(=O)(OCC)OCC , report its log10 TGI.
0.66

Using the record for CN(C)Cc1cc(C(=O)/C=C/c2ccc(Br)cc2)cc(CN(C)C)c1O , report its log10 TGI.
1.10

Using the record for CCN1CCC2(CC1)NC(=O)c1c(c3ccc(Cl)c(Cl)c3n1C)C2C#N (stereo unspecified) , report its log10 TGI.
0.61

Using the record for COc1cc(/C=C/C(=O)NC[C@]2(O)CCC3C4CCc5cc(O)ccc5C4CCC32C)ccc1O (stereo partly specified) , report its log10 TGI.
1.46

Using the record for COc1cc(/C=C/C=C2\CCC/C(=C\C=C\c3ccc(O)c(OC)c3)C2=O)ccc1O , report its log10 TGI.
1.49

Using the record for Cc1cc(Nc2cc(CN3CCOCC3)c3nc(C)c(Cc4ccc(Cl)cc4F)n3n2)n[nH]1 , report its log10 TGI.
1.09

Using the record for COc1ccc(S(=O)(=O)NC2=NCCN2C(=S)SN2CCn3c2nsc3=S)cc1OC , report its log10 TGI.
1.97

Using the record for OC12CC3c4ccccc4NC3C3Oc4cccc5c4C31CCN(CC1CC1)C2C5 (stereo unspecified) , report its log10 TGI.
1.53

Using the record for COc1ccc2nc3ccccc3c(NCCCCCN(CCCl)CCCl)c2c1 , report its log10 TGI.
0.45

###

- Tested on: IGROV1 ovarian
- assay name: NCI tumour cell line growth inhibition, 48 h
Overview of recorded TGI for various compounds

Recorded results for 5 compounds are shown here.
[
  {
    "compound": "COc1cc(CNc2nc3ccccc3n2Cc2ccccc2)cc(CN2CCOCC2)c1O",
    "TGI": "> 100 µM"
  },
  {
    "compound": "Brc1cccc(Nc2ncnc3sc4c(c23)CCC(Nc2cccc(Br)c2)C4)c1 (stereo unspecified)",
    "TGI": "> 100 µM"
  },
  {
    "compound": "c1ccc(CCCNc2nnnc3ccccc23)cc1",
    "TGI": "> 100 µM"
  },
  {
    "compound": "NC(N)=NCc1ccc2c(c1)OCO2",
    "TGI": "> 100 µM"
  },
  {
    "compound": "OC(COc1cccc2ccccc12)CN1CCN(c2ccc(Cl)cc2)CC1 (stereo unspecified)",
    "TGI": "40 µM"
  }
]

Using the record for COc1nc2c(cc1S(=O)(=O)c1ccccc1)CCc1c-2cnn1Cc1ccccc1 , report its TGI.
> 100 µM

Using the record for OC1CSCCCSCCSCCCSC1 , report its TGI.
> 100 µM

Using the record for COc1ccc(C2C3=C(COC3=O)OC(C)(C)Oc3cc4c(cc32)OCO4)cc1 (stereo unspecified) , report its TGI.
> 100 µM

Using the record for Cc1cc(Nc2cc(CN3CCOCC3)c3nc(C)c(Cc4ccc(Cl)cc4F)n3n2)n[nH]1 , report its TGI.
5.57 µM

Using the record for COc1ccc(/C=N/NC(=O)c2ccccc2Nc2ccccc2C(=O)N/N=C/c2ccc(OC)cc2)cc1 , report its TGI.
> 100 µM

Using the record for FC(F)(F)c1[nH]ncc1-c1nc2c(N3CCCCC3)cc3[nH]ncc3c2c2c1CCCC2 , report its TGI.
3.66 µM

Using the record for CC(C)=CCc1c(O)ccc2c1OC1c3ccc(O)c(CC=C(C)C)c3OCC21 (stereo unspecified) , report its TGI.
25.8 µM
